SYSTEM TESTED: T1, hVISTA-Fc (R&D systems. Cat. No. 7126-B7) (human, UniProt Q9H7M9 33-194)
T1 construct: Bought antigen; also called human VISTA-Fc; VISTA-FC Human
T1 sequence: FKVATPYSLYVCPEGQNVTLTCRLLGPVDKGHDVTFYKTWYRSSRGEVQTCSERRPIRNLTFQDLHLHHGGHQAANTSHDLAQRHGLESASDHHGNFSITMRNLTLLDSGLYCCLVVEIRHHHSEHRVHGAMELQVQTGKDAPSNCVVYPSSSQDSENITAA
PROTOCOL DETAILS: Octet (BLI), antibody as ligand on biosensor, VISTA-Fc as analyte
Method: The binding ability of the screened antibody to the antigen was measured using an Octet (ForteBio). For this purpose, the antibody was immobilized on a biosensor, various concentrations of antigen were added to a 96-well plate, and then the binding ability was measured. […]
Can you tell me kon for the items I'm about to list?
Answers are plain numbers, in M⁻¹ s⁻¹.

INSERT INTO results (binder, readout_kind, units_text, readout_number) VALUES
  ('PMC-309.3.3 (antibody, V domains shown) VH: QMQLVQSGAEVKKPGSSVKVSCKASGGSSSNYAISWVRQAPGQGLEWMGGIIPIFGTTSYAQKFQGRVTITADGSMSTAYMELSSLRSEDTAVYYCAKGAIEPWPFYFDNWGQGTLVTVSS VL: QLVLTQPRSVSGSPGQSVTISCTGTNSDVGAYNYLSWYQQLPGRAPKVIIYDVNKRPSGVPDRFSGSRSGKTASLTISGLQAEDEADYYCAAWDDNLYGLVFGGGTKLTVLG', 'kon', 'M⁻¹ s⁻¹', 185000);

// for each binder below, give its kon
1. Anti VISTA_V3_1 (IgG form) (antibody, V domains shown) VH: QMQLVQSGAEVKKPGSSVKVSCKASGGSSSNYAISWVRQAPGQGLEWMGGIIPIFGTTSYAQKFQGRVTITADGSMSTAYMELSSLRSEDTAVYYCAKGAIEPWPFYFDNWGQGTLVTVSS VL: QLVLTQPRSVSGSPGQSVTISCTGTNSDVGAYNYLSWYQQLPGRAPKVIIYDVNKRPSGVPDRFSGSRSGKTASLTISGLQAEDEADYYCAAWDDSLYGLVFGGGTKLTVLG
2. PMC-309.3.4w (antibody, V domains shown, Heavy chain G-H (framework substituted), wt light chain) VH: QVQLVQSGAEVKKPGSSVKVSCKASGGSSSNYAISWVRQAPGQGLEWMGGIIPIFGTTSYAQKFQGRVTITADKSTSTAYMELSSLRSEDTAVYYCAKGAIEPWPFYFDNWGQGTLVTVSS VL: QLVLTQPRSVSGSPGQSVTISCTGTNSDVGAYNYLSWYQQLPGRAPKVIIYDVNKRPSGVPDRFSGSRSGKTASLTISGLQAEDEADYYCAAWDDNLYGLVFGGGTKLTVLG
3. anti-VISTA antibody 1B8 (IgG form) (antibody, V domains shown, also called Anti VISTA 3.0(1B8); anti-VISTA mAb 1B8) VH: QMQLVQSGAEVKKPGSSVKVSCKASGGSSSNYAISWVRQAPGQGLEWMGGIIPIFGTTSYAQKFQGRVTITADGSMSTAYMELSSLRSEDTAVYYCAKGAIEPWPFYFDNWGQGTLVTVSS VL: QLVLTQPRSVSGSPGQSVTISCTGTNSDVGAYNYLSWYQQLPGRAPKVIIYDVNKRPSGVPDRFSGSRSGKTASLTISGLQAEDEADYYCAAWDDSLNGLVFGGGTKLTVLG

// result
1: 52500; 2: 189000; 3: 154000

// for each binder below, give its kon
1. Anti VISTA_V3_2 (IgG form) (antibody, V domains shown) VH: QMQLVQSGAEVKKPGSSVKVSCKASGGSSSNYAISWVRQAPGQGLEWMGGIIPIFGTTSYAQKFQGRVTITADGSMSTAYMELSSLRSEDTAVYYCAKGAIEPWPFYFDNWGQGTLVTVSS VL: QLVLTQPRSVSGSPGQSVTISCTGTNSDVGAYNYLSWYQQLPGRAPKVIIYDVNKRPSGVPDRFSGSRSGKTASLTISGLQAEDEADYYCAAWDDSLNDLVFGGGTKLTVLG
2. PMC-309.3.4SA (antibody, V domains shown, light chain SA; also called PMC-309.3.45A) VH: QVQLVQSGAEVKKPGSSVKVSCKASGGSSSNYAISWVRQAPGQGLEWMGGIIPIFGTTSYAQKFQGRVTITADKSTSTAYMELSSLRSEDTAVYYCAKGAIEPWPFYFDNWGQGTLVTVSS VL: QSALTQPRSVSGSPGQSVTISCTGTNSDVGAYNYLSWYQQLPGRAPKVIIYDVNKRPSGVPDRFSGSRSGKTASLTISGLQAEDEADYYCAAWDDNLYGLVFGGGTKLTVL

// result
1: 149000; 2: 225000
